Ref: paper PMC6538953

Biological target: human TAS2R7 (Homo sapiens)
Construct: first 45 residues of rat somatostatin receptor 3 (signal peptide) (N); expressed in transfected cells; host or cells: HEK293 (PEAKrapid, ATCC CRL-2828)
Sequence (Q9NYW3 1-318): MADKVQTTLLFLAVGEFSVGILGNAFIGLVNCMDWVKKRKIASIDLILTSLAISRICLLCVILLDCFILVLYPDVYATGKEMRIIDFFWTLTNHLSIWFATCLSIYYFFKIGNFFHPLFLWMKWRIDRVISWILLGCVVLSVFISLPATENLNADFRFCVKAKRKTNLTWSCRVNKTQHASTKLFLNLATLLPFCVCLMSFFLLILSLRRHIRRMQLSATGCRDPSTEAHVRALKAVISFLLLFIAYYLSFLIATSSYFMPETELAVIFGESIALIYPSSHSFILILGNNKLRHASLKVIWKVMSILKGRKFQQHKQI
Test: Calcium mobilization assay, HEK293 cells transfected with TAS2R7 and Gα16-gust44
Format: cell-based
Settings: assay solution containing no calcium; Figure 3A; read-out: EC50, TAS2R7, in the absence of calcium
assay readout: pEC50
On this scale, pEC50 is minus log10 of a concentration expressed in M (mol/L).

What value of measured pEC50 is listed for O=S(=O)([O-])[O-].O=S(=O)([O-])[O-].O=S(=O)([O-])[O-].[Al+3].[Al+3] [Al2(SO4)3, aluminum sulfate] ?
4.26

* * *

Biological target: human TAS2R7 (Homo sapiens, UniProt Q9NYW3)
Construct: first 45 residues of rat somatostatin receptor 3 (signal peptide) (N); expressed in transfected cells; host or cells: HEK293 (PEAKrapid, ATCC CRL-2828)
Test: Calcium mobilization assay, HEK293 cells transfected with TAS2R7 and Gα16-gust44
Format: cell-based
Details: assay solution containing no calcium; Figures 3A, 4C; read-out: EC50, TAS2R7, in the absence of calcium
Would you mind telling me the reported EC50 of each entry?
Number in mM, nothing else.

EC50 for O=C(O)c1cc(=O)c2c(OCC(O)COc3cccc4oc(C(=O)O)cc(=O)c34)cccc2o1 [cromolyn, reference compound] ?
5.22

// returns reported EC50 for input O=S(=O)([O-])[O-].[Cu+2]
0.85

Looking for the measured EC50 of [Cl][Mn][Cl] , can you help?
7.19

Returns the measured EC50 for the input compound. Input: [Cl-].[Cl-].[Mg+2]
5.78

Form field: reported EC50 of [Ca+2].[Cl-].[Cl-]
4.7

Record request: EC50 value, item O=S(=O)([O-])[O-].[Zn+2]
3.49

* * *

Molecular target: human TAS2R7 (Homo sapiens, UniProt Q9NYW3)
Construct: first 45 residues of rat somatostatin receptor 3 (signal peptide) (N); expressed in transfected cells; host or cells: HEK293 (PEAKrapid, ATCC CRL-2828)
Sequence (Q9NYW3 1-318): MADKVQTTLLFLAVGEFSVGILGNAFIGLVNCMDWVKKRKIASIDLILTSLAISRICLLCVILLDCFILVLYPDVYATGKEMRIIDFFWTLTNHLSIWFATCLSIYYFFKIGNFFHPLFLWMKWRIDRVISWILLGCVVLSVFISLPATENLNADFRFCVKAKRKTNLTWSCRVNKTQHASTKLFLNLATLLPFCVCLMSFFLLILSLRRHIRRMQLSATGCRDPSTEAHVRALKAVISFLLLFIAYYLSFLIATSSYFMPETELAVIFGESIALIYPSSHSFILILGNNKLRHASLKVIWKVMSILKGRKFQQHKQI
Assay: Calcium mobilization assay, HEK293 cells transfected with TAS2R7 and Gα16-gust44
Assay type: cell-based
Conditions: assay solution with 2 mM CaCl2; Figure 2; read-out: EC50, TAS2R7 concentration-response
assay readout: pEC50
In textbook form, pEC50 equals minus log to base ten of the concentration in mol/L.

Request: pEC50, test system human TAS2R7 (Homo sapiens, UniProt Q9NYW3), entry [Cl][Mn][Cl] [MnCl2]
2.18

// fetch human TAS2R7 (Homo sapiens, UniProt Q9NYW3) pEC50 for [Ca+2].[Cl-].[Cl-] [CaCl2]
2.28

Query pEC50 on human TAS2R7 (Homo sapiens, UniProt Q9NYW3) for O=S(=O)([O-])[O-].[Cu+2] [CuSO4]
2.98

Fill in the recorded pEC50 for this compound, with human TAS2R7 (Homo sapiens, UniProt Q9NYW3) as test system: O=S(=O)([O-])[O-].O=S(=O)([O-])[O-].O=S(=O)([O-])[O-].[Al+3].[Al+3] [Al2(SO4)3, aluminum sulfate]
4.41

What is its pEC50 for human TAS2R7 (Homo sapiens, UniProt Q9NYW3)? Entry: [Cl-].[Cl-].[Mg+2] [MgCl2]
2.22
